Source of measurements: ChEMBL document CHEMBL4359856

- ASSAYED_TARGET: Cannabinoid receptor 2 (Homo sapiens, UniProt P34972)
- Sequence (P34972 whole entry): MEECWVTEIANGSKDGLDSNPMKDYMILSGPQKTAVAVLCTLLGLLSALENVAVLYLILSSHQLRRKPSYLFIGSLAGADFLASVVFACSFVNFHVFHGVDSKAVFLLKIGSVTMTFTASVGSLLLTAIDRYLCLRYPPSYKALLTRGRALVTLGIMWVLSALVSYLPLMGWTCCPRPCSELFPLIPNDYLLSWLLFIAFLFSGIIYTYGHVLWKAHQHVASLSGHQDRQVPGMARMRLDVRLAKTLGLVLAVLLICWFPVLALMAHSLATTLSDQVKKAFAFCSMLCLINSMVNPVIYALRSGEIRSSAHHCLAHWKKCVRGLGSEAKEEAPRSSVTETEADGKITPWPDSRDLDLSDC
- PROCEDURE_SUMMARY: Agonist activity at human CB2 receptor expressed in AtT-20 cells at 1 uM measured every 2 secs for 2 mins by FLIPR assay relative to control
- Type: cell-based
READOUT_KIND: Emax (%)
Quick reminder: number only, in %, skip the unit.

- CC(C)(C)[C@H](NC(=O)c1cn(CCCCCO)c2ncccc12)C(N)=O: 96
- CCCCCn1c(C(=O)N[C@H](C(=O)OC)C(C)C)cc2ccccc21: 74
- CCCCCn1c(C(=O)N[C@H](C(N)=O)C(C)(C)C)cc2ccccc21: 73

Quick note, Emax for "CCCCCn1cc(C(=O)N[C@H](C(N)=O)C(C)C)c2cccnc21" landed at 103

Quick note, Emax for "CCCCCn1nc(C(=O)NC23CC4CC(CC(C4)C2)C3)c2cccnc21" landed at 104

* * *

// pEC50 lookup, one value per entry
- ASSAYED_TARGET: Cannabinoid receptor 2 (Homo sapiens, UniProt P34972)
- PROCEDURE_SUMMARY: Agonist activity at human CB2 receptor expressed in AtT-20 cells measured every 2 secs for 2 mins by FLIPR assay
pEC50 field: float, defined as -log10 of concentration (mol/L).

Quick note, pEC50 for "CCCCCn1c(C(=O)N[C@H](C(=O)OC)C(C)C)cc2ccccc21" landed at 6.15

Quick note, pEC50 for "CCCCCn1cc(C(=O)N[C@H](C(N)=O)C(C)(C)C)c2cccnc21" landed at 8.30

Quick note, pEC50 for "CCCCCn1c(C(=O)N[C@H](C(N)=O)C(C)C)cc2ccccc21" landed at 6.13

Quick note, pEC50 for "CC(C)(NC(=O)c1cn(CCCCCO)c2ncccc12)c1ccccc1" landed at 6.82

Quick note, pEC50 for "CC(C)(C)[C@H](NC(=O)c1cn(CCCCCO)c2ncccc12)C(N)=O" landed at 7.30

* * *

- ASSAYED_TARGET: UniProtKB P21554
- PROCEDURE_SUMMARY: Agonist activity at human CB1 receptor expressed in AtT-20 cells at 1 uM measured every 2 secs for 2 mins by FLIPR assay relative to control
- Assay type: cell-based
// Emax at 1 µM lookup, one value per entry

Previously resolved entries follow.
- CC(C)(C)[C@H](NC(=O)c1cn(CCCCCO)c2ncccc12)C(N)=O: 98%
- CCCCCn1cc(C(=O)N[C@H](C(N)=O)C(C)(C)C)c2cccnc21: 110%
- COC(=O)[C@@H](NC(=O)c1cn(CCCCCO)c2ncccc12)C(C)(C)C: 99%
- CCCCCn1nc(C(=O)NC23CC4CC(CC(C4)C2)C3)c2cccnc21: 97%
- CCCCCn1cc(C(=O)N[C@H](C(N)=O)C(C)C)c2cccnc21: 117%

Quick note, Emax at 1 µM for "CCCCCn1cc(C(=O)N[C@H](C(=O)OC)C(C)(C)C)c2cccnc21" landed at 103%

Quick note, Emax at 1 µM for "CC(C)(NC(=O)c1cn(CCCCCO)c2ncccc12)c1ccccc1" landed at 110%

Quick note, Emax at 1 µM for "CCCCCn1cc(C(=O)NC(C)(C)c2ccccc2)c2cccnc21" landed at 106%

Quick note, Emax at 1 µM for "CCCCCn1cc(C(=O)N[C@H](C(=O)OC)C(C)C)c2cccnc21" landed at 97%

Quick note, Emax at 1 µM for "CCCCCn1cc(C(=O)NC23CC4CC(CC(C4)C2)C3)c2cccnc21" landed at 75%

Quick note, Emax at 1 µM for "CCCCCn1cc(C(=O)NC23CC4CC(CC(C4)C2)C3)c2ccccc21" landed at 108%

* * *

- ASSAYED_TARGET: Cannabinoid receptor 2 (Homo sapiens, UniProt P34972)
- PROCEDURE_SUMMARY: Agonist activity at human CB2 receptor expressed in AtT-20 cells measured every 2 secs for 2 mins by FLIPR assay
pEC50: −log10 of the molar value.
Decide using pEC50: a value greater than or equal to 7 is 1, a smaller one is -1.

Textbook exercise: given the entry "CCCCCn1cc(C(=O)N[C@H](C(N)=O)C(C)C)c2cccnc21" , state whether its pEC50 is greater than or equal to 7.
1

Textbook exercise: given the entry "CCCCCn1cc(C(=O)N[C@H](C(=O)OC)C(C)C)c2cccnc21" , state whether its pEC50 is greater than or equal to 7.
1

Textbook exercise: given the entry "O=C(NC12CC3CC(CC(C3)C1)C2)c1cn(CCCCCO)c2ncccc12" , state whether its pEC50 is greater than or equal to 7.
1

Textbook exercise: given the entry "COC(=O)[C@@H](NC(=O)c1cn(CCCCCO)c2ncccc12)C(C)(C)C" , state whether its pEC50 is greater than or equal to 7.
1

Textbook exercise: given the entry "CCCCCn1cc(C(=O)NC23CC4CC(CC(C4)C2)C3)c2cccnc21" , state whether its pEC50 is greater than or equal to 7.
1

Textbook exercise: given the entry "CCCCCn1c(C(=O)N[C@H](C(N)=O)C(C)(C)C)cc2ccccc21" , state whether its pEC50 is greater than or equal to 7.
-1

Textbook exercise: given the entry "CC(C)(NC(=O)c1cc2ccccc2n1CCCCCO)c1ccccc1" , state whether its pEC50 is greater than or equal to 7.
-1

Textbook exercise: given the entry "CC(C)(C)[C@H](NC(=O)c1cc2ccccc2n1CCCCC(F)F)C(N)=O" , state whether its pEC50 is greater than or equal to 7.
-1

Textbook exercise: given the entry "CCCCCn1cc(C(=O)N[C@H](C(=O)OC)C(C)(C)C)c2cccnc21" , state whether its pEC50 is greater than or equal to 7.
1

* * *

- ASSAYED_TARGET: Cannabinoid receptor 1 (Homo sapiens, UniProt P21554)
- Sequence (P21554 whole entry): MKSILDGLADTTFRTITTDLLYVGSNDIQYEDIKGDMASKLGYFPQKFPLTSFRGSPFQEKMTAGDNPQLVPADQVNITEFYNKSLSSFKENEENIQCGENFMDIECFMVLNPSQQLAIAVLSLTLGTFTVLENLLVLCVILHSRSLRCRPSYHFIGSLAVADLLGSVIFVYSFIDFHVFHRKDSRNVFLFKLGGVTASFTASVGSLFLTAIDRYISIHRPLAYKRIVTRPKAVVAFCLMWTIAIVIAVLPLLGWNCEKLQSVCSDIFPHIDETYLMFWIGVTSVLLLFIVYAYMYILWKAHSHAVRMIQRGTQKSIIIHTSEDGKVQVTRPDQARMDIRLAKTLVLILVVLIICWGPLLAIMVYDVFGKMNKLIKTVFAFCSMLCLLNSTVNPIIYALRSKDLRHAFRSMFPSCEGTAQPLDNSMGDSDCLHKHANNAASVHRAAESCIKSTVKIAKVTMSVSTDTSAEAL
- PROCEDURE_SUMMARY: Agonist activity at human CB1 receptor expressed in AtT-20 cells measured every 2 secs for 2 mins by FLIPR assay
// pEC50 lookup, one value per entry
pEC50 field: float, defined as -log10 of concentration (mol/L).

Previously resolved entries follow.
- CCCCCn1nc(C(=O)NC23CC4CC(CC(C4)C2)C3)c2cccnc21: 6.08
- CCCCCn1cc(C(=O)N[C@H](C(=O)OC)C(C)(C)C)c2cccnc21: 8.77

Now examine the next entry.
Quick note, pEC50 for "COC(=O)[C@@H](NC(=O)c1cn(CCCCCO)c2ncccc12)C(C)(C)C" landed at 6.63

* * *

// pEC50 lookup, one value per entry
- ASSAYED_TARGET: Cannabinoid receptor 1 (Homo sapiens, UniProt P21554)
- PROCEDURE_SUMMARY: Agonist activity at human CB1 receptor expressed in AtT-20 cells measured every 2 secs for 2 mins by FLIPR assay
pEC50 field: float, defined as -log10 of concentration (mol/L).

Previously resolved entries follow.
- CCCCCn1cc(C(=O)N[C@H](C(N)=O)C(C)(C)C)c2cccnc21: 8.40
- CCCCCn1cc(C(=O)N[C@H](C(=O)OC)C(C)C)c2cccnc21: 7.25
- CC(C)(C)[C@H](NC(=O)c1cn(CCCCCO)c2ncccc12)C(N)=O: 6.31
- CCCCCn1cc(C(=O)N[C@H](C(N)=O)C(C)C)c2cccnc21: 6.92

Now examine the next entry.
So the reported pEC50 for "CC(C)(NC(=O)c1cn(CCCCCO)c2ncccc12)c1ccccc1" , on Cannabinoid receptor 1 (Homo sapiens, UniProt P21554), turned out to be 6.33

* * *

- ASSAYED_TARGET: Cannabinoid receptor 2 (Homo sapiens)
- PROCEDURE_SUMMARY: Agonist activity at human CB2 receptor expressed in AtT-20 cells at 1 uM measured every 2 secs for 2 mins by FLIPR assay relative to control
- Assay type: cell-based
// Emax lookup, one value per entry
Quick reminder: number only, in %, skip the unit.

Previously resolved entries follow.
- CC(C)(NC(=O)c1cn(CCCCCO)c2ncccc12)c1ccccc1: 95
- CC(C)(C)[C@H](NC(=O)c1cc2ccccc2n1CCCCC(F)F)C(N)=O: 128
- COC(=O)[C@@H](NC(=O)c1cn(CCCCCO)c2ncccc12)C(C)(C)C: 96
- CCCCCn1cc(C(=O)NC23CC4CC(CC(C4)C2)C3)c2ccccc21: 85
- CCCCCn1cc(C(=O)NC23CC4CC(CC(C4)C2)C3)c2cccnc21: 101

Now examine the next entry.
Quick note, Emax for "CCCCCn1cc(C(=O)N[C@H](C(N)=O)C(C)(C)C)c2cccnc21" landed at 94

* * *

- ASSAYED_TARGET: Cannabinoid receptor 2 (Homo sapiens, UniProt P34972)
- PROCEDURE_SUMMARY: Agonist activity at human CB2 receptor expressed in AtT-20 cells measured every 2 secs for 2 mins by FLIPR assay
// EC50 lookup, one value per entry
Quick reminder: number only, in nM, skip the unit.

Previously resolved entries follow.
- CCCCCn1nc(C(=O)NC23CC4CC(CC(C4)C2)C3)c2cccnc21: 122
- CCCCCn1cc(C(=O)NC(C)(C)c2ccccc2)c2cccnc21: 104

Now examine the next entry.
Quick note, EC50 for "CCCCCn1cc(C(=O)NC23CC4CC(CC(C4)C2)C3)c2ccccc21" landed at 96
